# Target Desc: human H1 (Homo sapiens)
# Construct: host or cells: CHO-K1, also expressing mitochondrion-targeted aequorin
# Assay Procedure: In vitro histamine H1 receptor cell-based aequorin bioluminescence antagonist assay
# Condition Notes: CHO-K1 cells expressing human H1 and aequorin; histamine at EC80; read-out: H1 Antagonist EC50
pEC50: −log10 of the molar value.
Endpoint: pEC50

Example entries begin here.
Cc1ccc(S(=O)(=O)NCCNc2ncnc3scc(C)c23)cc1; < 5.00
Cc1ccc(N2CCN(c3ncnc4scc(C)c34)CC2)c(C)c1; < 5.00
Cc1csc2ncnc(NCCOc3ccccc3)c12; < 5.00
Cc1sc2ncnc(N3CCC(C(=O)OCc4ccc(C#N)cc4)CC3)c2c1C; < 5.00
Cc1csc2ncnc(N(CCCO)Cc3ccccn3)c12; < 5.00

Item: Cc1csc2ncnc(NCc3ccccc3)c12 | pEC50: < 5.00

Item: Cc1cccc(CNc2ncnc3scc(C)c23)c1 | pEC50: < 5.00

Item: COCC(C)Nc1ncnc2scc(C)c12 (stereo not shown) | pEC50: < 5.00

====

# Target Desc: human H1 (Homo sapiens, UniProt P35367)
# Construct: host or cells: CHO-K1, also expressing mitochondrion-targeted aequorin
# Sequence (P35367 whole entry): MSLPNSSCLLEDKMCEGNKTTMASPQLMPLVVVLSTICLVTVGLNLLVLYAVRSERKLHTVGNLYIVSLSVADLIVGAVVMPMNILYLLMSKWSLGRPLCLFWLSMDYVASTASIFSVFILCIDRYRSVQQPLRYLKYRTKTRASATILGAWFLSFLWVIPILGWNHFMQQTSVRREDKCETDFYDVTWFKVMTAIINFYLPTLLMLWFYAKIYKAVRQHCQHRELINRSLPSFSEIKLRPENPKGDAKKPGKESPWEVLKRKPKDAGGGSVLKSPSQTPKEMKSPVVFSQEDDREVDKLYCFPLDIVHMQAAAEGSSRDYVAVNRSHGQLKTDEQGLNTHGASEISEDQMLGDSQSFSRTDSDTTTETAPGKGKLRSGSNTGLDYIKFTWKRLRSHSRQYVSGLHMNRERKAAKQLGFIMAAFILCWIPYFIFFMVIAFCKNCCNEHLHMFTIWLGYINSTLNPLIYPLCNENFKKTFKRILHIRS
# Assay Procedure: In vitro histamine H1 receptor cell-based aequorin bioluminescence antagonist assay
Endpoint: EC50

Item: COc1ccc(OC)c(CCNc2ncnc3scc(C)c23)c1 | EC50: > 10 µM

====

# Target Desc: human H1 (Homo sapiens, UniProt P35367)
# Construct: host or cells: CHO-K1, also expressing mitochondrion-targeted aequorin
# Assay Procedure: In vitro histamine H1 receptor cell-based aequorin bioluminescence antagonist assay
# Condition Notes: CHO-K1 cells expressing human H1 and aequorin; histamine at EC80; read-out: H1 Antagonist EC50
Endpoint: EC50

Example entries begin here.
Cc1csc2ncnc(CNCc3ccc(Cl)cc3)c12; > 10 µM
Cc1ccc(C)c(CNc2ncnc3scc(C)c23)c1; > 10 µM
Cc1csc2ncnc(N(C)C(Cc3ccccc3)c3ccccc3)c12 (stereo not drawn); > 10 µM
Cc1csc2ncnc(NCCc3c[nH]c4ccccc34)c12; > 10 µM
CCN(CC)c1ncnc2scc(C)c12; > 10 µM

Param item: COc1ccccc1CNc1ncnc2scc(C)c12 ; param system: human H1 (Homo sapiens, UniProt P35367); output EC50: > 10 µM

Param item: Cc1csc2ncnc(N(CCO)[C@H](C)c3ccccc3)c12 ; param system: human H1 (Homo sapiens, UniProt P35367); output EC50: > 10 µM

Param item: Cc1csc2ncnc(N3CCC(Cc4ccccc4)CC3)c12 ; param system: human H1 (Homo sapiens, UniProt P35367); output EC50: > 10 µM

Param item: C#CCN(Cc1ccc(Cl)cc1Cl)c1ncnc2scc(C)c12 ; param system: human H1 (Homo sapiens, UniProt P35367); output EC50: > 10 µM

Param item: Cc1ccc(CNc2ncnc3scc(C)c23)cc1C ; param system: human H1 (Homo sapiens, UniProt P35367); output EC50: > 10 µM

====

# Target Desc: UniProt:Q9H3N8
# Sequence (Q9H3N8 whole entry): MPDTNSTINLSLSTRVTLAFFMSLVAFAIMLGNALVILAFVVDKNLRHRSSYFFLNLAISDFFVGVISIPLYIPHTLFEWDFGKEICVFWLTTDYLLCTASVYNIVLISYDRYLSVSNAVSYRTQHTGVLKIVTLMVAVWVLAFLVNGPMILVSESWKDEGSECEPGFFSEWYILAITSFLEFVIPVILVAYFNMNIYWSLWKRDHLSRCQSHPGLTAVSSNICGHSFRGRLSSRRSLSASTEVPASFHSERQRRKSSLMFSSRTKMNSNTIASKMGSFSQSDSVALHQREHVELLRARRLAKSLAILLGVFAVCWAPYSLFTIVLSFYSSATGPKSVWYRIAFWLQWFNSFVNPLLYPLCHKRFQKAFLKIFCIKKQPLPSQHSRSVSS
# Assay Procedure: In vitro histamine H4 receptor cell-based aequorin bioluminescence antagonist assay
# Condition Notes: CHO-K1 cells expressing human H4, aequorin and Gα16; histamine at EC80
Quick reference for EC50 among some molecules

CCN(CC)CCN(Cc1ccccc1)c1ncnc2scc(C)c12 [Example 272]; > 10 µM
CCN(CC)CCCC(C)Nc1ncnc2scc(C)c12 (stereo not shown) [Example 151]; > 10 µM
Cc1csc2ncnc(NCC(=O)c3ccccc3)c12 [Example 161]; > 10 µM

// next entry
Item: Cc1csc2ncnc(NC3CC(C)(C)NC(C)(C)C3)c12 [Example 150] | EC50: > 10 µM
